# System: CYP2B6
# test-protocol: CYP2B6 enzyme induction assay in cryopreserved primary human hepatocytes (PHH);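 as to Assigned classification CYP2B6: code 1 means positive inducer and 0 means non-inducer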
# Format: in vitro ADME
# test-parameters: PHH; Lab 1; batch 4 0 8
We begin with a simple list: items and their reported Assigned classification CYP2B6.

| compound | target-of-assay | Assigned classification CYP2B6 |
| --- | --- | --- |
| CO[C@H]1/C=C/O[C@@]2(C)Oc3c(C)c(O)c4c(O)c(c(/C=N/N5CCN(C)CC5)c(O)c4c3C2=O)NC(=O)/C(C)=C\C=C\[C@H](C)[C@H](O)[C@@H](C)[C@@H](O)[C@@H](C)[C@H](OC(C)=O)[C@@H]1C [Rifampicin] | CYP2B6 | 1 |
| COc1ccc2[nH]c([S+]([O-])Cc3ncc(C)c(OC)c3C)nc2c1 (stereo not drawn) [Omeprazole] | CYP2B6 | 1 |
| O=C1Nc2ccc(Cl)cc2[C@@](C#CC2CC2)(C(F)(F)F)O1 [Efavirenz] | CYP2B6 | 1 |

----------
# Test system: CYP2B6
# test-protocol: CYP2B6 enzyme induction assay in cryopreserved HepaRG cells (bupropion probe, LC/MS)
# Format: in vitro ADME, human
# test-parameters: CYP2B6, HepaRG cells; in vitro concentration producing 2-fold induction
We begin with a simple list: items and their reported F2.
assay-metric: F2

| compound | reported-result |
| --- | --- |
| CO[C@H]1/C=C/O[C@@]2(C)Oc3c(C)c(O)c4c(O)c(c(/C=N/N5CCN(C)CC5)c(O)c4c3C2=O)NC(=O)/C(C)=C\C=C\[C@H](C)[C@H](O)[C@@H](C)[C@@H](O)[C@@H](C)[C@H](OC(C)=O)[C@@H]1C | 0.6 to 1.80 µM |
| O=C1C(CC[S+]([O-])c2ccccc2)C(=O)N(c2ccccc2)N1c1ccccc1 (stereo not drawn) | 11.0 to 33.0 µM |
| COc1ccccc1Oc1c(NS(=O)(=O)c2ccc(C(C)(C)C)cc2)nc(-c2ncccn2)nc1OCCO [Bosentan hydrate] | 2.60 to 7.80 µM |

----------
# Tested on: CYP1A2
# test-protocol: CYP1A2 enzyme induction assay in cryopreserved primary human hepatocytes (PHH);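 also: code 1 means positive inducer and 0 means non-inducer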
# Type: in vitro ADME
# test-parameters: PHH; Lab 2; batch 8 0 8

| compound | target-of-assay | Assigned classification CYP1A2 |
| --- | --- | --- |
| CO[C@H]1/C=C/O[C@@]2(C)Oc3c(C)c(O)c4c(c3C2=O)C2=NC3(CCN(CC(C)C)CC3)NC2=C(NC(=O)/C(C)=C\C=C\[C@H](C)[C@H](O)[C@@H](C)[C@@H](O)[C@@H](C)[C@H](OC(C)=O)[C@@H]1C)C4=O | CYP1A2 | 1 |
| COc1ccccc1Oc1c(NS(=O)(=O)c2ccc(C(C)(C)C)cc2)nc(-c2ncccn2)nc1OCCO [Bosentan hydrate] | CYP1A2 | 1 |
| O=C1Nc2ccc(Cl)cc2[C@@](C#CC2CC2)(C(F)(F)F)O1 | CYP1A2 | 0 |

----------
# Test system: CYP2B6
# test-protocol: CYP2B6 enzyme induction assay in cryopreserved primary human hepatocytes (PHH)
# Assay type: in vitro ADME
# test-parameters: CYP2B6, PHH
We begin with a simple list: items and their reported F2.

| molecule | F2 |
| --- | --- |
| CO[C@H]1/C=C/O[C@@]2(C)Oc3c(C)c(O)c4c(c3C2=O)C2=NC3(CCN(CC(C)C)CC3)NC2=C(NC(=O)/C(C)=C\C=C\[C@H](C)[C@H](O)[C@@H](C)[C@@H](O)[C@@H](C)[C@H](OC(C)=O)[C@@H]1C)C4=O | 0.29 to 0.87 µM |
| O=C1NC(=O)C(c2ccccc2)(c2ccccc2)N1 [Phenytoin sodium] | 0.60 to 48.6 µM |
| COc1ccc2[nH]c([S+]([O-])Cc3ncc(C)c(OC)c3C)nc2c1 (stereo not drawn) | 38.6 to 116 µM |
